Test: Plasma and tissue distribution in SD rats
Format: in vivo
Settings: Sprague-Dawley, rat, eye, oral, SD rat, Eye; read-out: Tissue/Plasma Ratio (AUCinf)
# Kp per entry
Just the number, please, no unit after it.

1) C[C@@H](c1ccc(Nc2cc(Nc3ncccc3S(C)(=O)=O)ncn2)nc1)N1CC2(COC2)C1 : 0.8

Request: Could you tell me which Kp is on file for `C[C@@H](c1ccc(Nc2cc(Nc3ncc(F)cc3S(C)(=O)=O)ncn2)nc1)N1CC2(COC2)C1` ?
Response: 1.2

====

Target: TYK2-JH2 (Homo sapiens, UniProt P29597)
Construct: TYK JH2 enzyme mix (ChemPartner: CP20210818A-BV); purchased ChemPartner CP20210818A-BV
Sequence (P29597 589-875 limits assumed): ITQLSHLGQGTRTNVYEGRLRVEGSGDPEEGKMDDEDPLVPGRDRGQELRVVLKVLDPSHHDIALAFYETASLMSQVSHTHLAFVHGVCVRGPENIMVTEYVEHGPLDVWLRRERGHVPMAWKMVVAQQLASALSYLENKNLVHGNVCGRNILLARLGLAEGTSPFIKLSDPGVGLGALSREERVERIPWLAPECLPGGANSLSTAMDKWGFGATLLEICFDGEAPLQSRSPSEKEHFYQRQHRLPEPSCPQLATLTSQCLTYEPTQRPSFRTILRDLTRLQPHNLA
Assay: TYK2-JH2 HTRF binding assay (ligand efficiency)
Details: calculated from binding-assay IC50 (Equation 1)
measurement.name: Ligand Efficiency

Examples from the recorded data:
1) CC(c1ccc(Nc2ncnc(Nc3ncccc3S(C)(=O)=O)c2F)nc1)N1CC2(COC2)C1 (stereo not shown) : † (†: < 0.37)
2) CS(=O)(=O)c1ccccc1Nc1cc(Nc2ccc(C(=O)NC3CCOC3)cn2)ncn1 (stereo not shown) : †† (††: 0.37-0.39)
3) Cc1cnnc(Nc2cc(Nc3ccccc3C(N)=O)ncn2)c1 : ††† (†††: >0.39)
4) CS(=O)(=O)c1ccccc1Nc1cc(Nc2ccc3c(n2)CCCC3N2CC3(CCOCC3)C2)ncn1 (stereo not shown) : † (†: < 0.37)
5) CC(c1ccc(Nc2cc(Nc3ncccc3S(C)(=O)=O)ncn2)nc1)N1CC2(CC(C(F)F)C2)C1 (stereo not shown) : †† (††: 0.37-0.39)
6) Cc1cccc(Nc2cc(Nc3cccnc3C(N)=O)ncn2)n1 : ††† (†††: >0.39)

Request: Could you tell me which Ligand Efficiency is on file for `CC(C)(c1ccc(Nc2cc(Nc3ncccc3S(C)(=O)=O)ncn2)nc1)N1CC2(CCOCC2)C1` ?
Response: †† (††: 0.37-0.39)

Request: Could you tell me which Ligand Efficiency is on file for CC(c1ccc(Nc2cc(Nc3ncccc3S(C)(=O)=O)ncn2)nc1)N1CC2(CC(F)C2)C1 (stereo in doubt) ?
Response: ††† (†††: >0.39)

Request: Could you tell me which Ligand Efficiency is on file for `C[C@H]1COCCN1c1ccc(Nc2cc(Nc3ccccc3S(C)(=O)=O)ncn2)nc1` ?
Response: † (†: < 0.37)

Request: Could you tell me which Ligand Efficiency is on file for `C[C@@H](c1ccc(Nc2cc(Nc3ncccc3S(C)(=O)=O)ncn2)nc1)N1CC2(COC2)C1` ?
Response: ††† (†††: >0.39)

Request: Could you tell me which Ligand Efficiency is on file for COc1ccnc(Nc2cc(Nc3ccc(C(C)N4CC5(COC5)C4)cn3)ncn2)c1S(C)(=O)=O (stereo not shown) ?
Response: † (†: < 0.37)

Request: Could you tell me which Ligand Efficiency is on file for Cc1nc(Nc2cc(Nc3ncccc3S(C)(=O)=O)ncn2)ccc1[C@H](C)N1CC2(COC2)C1 (stereo in doubt) ?
Response: ††† (†††: >0.39)

Request: Could you tell me which Ligand Efficiency is on file for `Cc1cccc(Nc2cc(Nc3ccccc3C(N)=O)ncn2)n1` ?
Response: ††† (†††: >0.39)

Request: Could you tell me which Ligand Efficiency is on file for `CS(=O)(=O)c1ccccc1Nc1cc(Nc2ccc(NC3COC3)cn2)ncn1` ?
Response: † (†: < 0.37)

Request: Could you tell me which Ligand Efficiency is on file for CC(NC1CCOC1)c1ccc(Nc2cc(Nc3ccccc3S(C)(=O)=O)ncn2)nc1 (stereo not shown) ?
Response: †† (††: 0.37-0.39)

Request: Could you tell me which Ligand Efficiency is on file for `C[C@H]1CN(C2CC2)CCN1c1ccc(Nc2cc(Nc3ncccc3S(C)(=O)=O)ncn2)nc1` ?
Response: ††† (†††: >0.39)
